test: binders from COS7 lysate, DM2A8 probe, primary screen, torsin A project, cell lysate, small-molecule microarray, fluorescence 635/667 (AID 1065)
reported_conditions: higher = more signal, COS7 lysate expressing mutant human TOR1A
Label rule, in plain words: composite z-score of 0.7 and up is condition met, under 0.7 is condition not met.

[
  {
    "compound": "O=C1C[C@@](C(=O)NC2CC2)(c2ccc([N+](=O)[O-])cc2)[C@@H](c2ccc(CO)cc2I)N1C1CCCCC1",
    "cat": "condition met"
  },
  {
    "compound": "C=CCOC(=O)[C@H]1[C@@H]2C(=O)O[C@@H](c3ccccc3)[C@@H](c3ccccc3)N2[C@@H](c2ccc(OCCOC(=O)[C@H]3C[C@H]4C(=O)N[C@@H](CCCC[N+](C)(C)C)C(=O)N4[C@H]3c3ccc(O)cc3)cc2)[C@]12C(=O)Nc1ccc(I)cc12",
    "cat": "condition met"
  },
  {
    "compound": "COC(=O)C(CC#Cc1ccc2c(c1)[C@]1(C(=O)N2)[C@H](c2ccc(OCCO)cc2)N2[C@H](c3ccccc3)[C@H](c3ccccc3)OC(=O)[C@H]2[C@@H]1C(=O)N1CCc2cc(OC)c(OC)cc2C1)C(=O)OC",
    "cat": "condition met"
  },
  {
    "compound": "C=C(C)[C@@H]1CC=C(C(O)C2C=CC3C(=O)N(C)C(=O)C3N2Nc2ccccc2)CC1 (stereo partly specified)",
    "cat": "condition not met"
  },
  {
    "compound": "COC(=O)C(CC#Cc1ccc2c(c1)[C@]1(C(=O)N2)[C@H](C(=O)Nc2nc3ccccc3s2)[C@H]2C(=O)O[C@H](c3ccccc3)[C@H](c3ccccc3)N2[C@@H]1c1ccccc1OCCO)C(=O)OC",
    "cat": "condition not met"
  },
  {
    "compound": "NC(=O)NCC#Cc1ccc2c(c1)[C@]1(C(=O)N2)[C@H](c2ccc(O)cc2)N2[C@H](c3ccccc3)[C@H](c3ccccc3)OC(=O)[C@H]2[C@@H]1C(=O)O",
    "cat": "condition not met"
  }
]

---

target_desc: Pro-neuregulin-1, membrane-bound isoform (Homo sapiens)
test: NRG1 binders on small-molecule microarrays, primary screen, psychiatric disease protein project, biochemical, small-molecule microarray, fluorescence 635/667 (AID 1075);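 further: score combines 667 nm spot fluorescence with signal to noise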
reported_conditions: NRG1 binding, 635 nm fluorescence, higher = more signal

[
  {
    "molecule": "C=CCNC(=O)[C@@H]1[C@H]2C(=O)O[C@H](c3ccccc3)[C@H](c3ccccc3)N2[C@H](c2ccccc2OCCO)[C@@]12C(=O)N(C(=O)OCCOC)c1ccccc12",
    "composite z-score": 0.848
  },
  {
    "molecule": "C=C(CCCC)C(=O)CC[C@@H](OC(=O)c1ccccc1-c1ccccc1C(=O)O)c1ccc(OCCO)cc1",
    "composite z-score": 0.529
  },
  {
    "molecule": "C=C(COC)/C(=C/C[C@@H](OC(C)=O)c1ccc(OCCO)cc1)c1cnc2ccccc2c1",
    "composite z-score": 0.521
  },
  {
    "molecule": "COc1cc(NN2C(C(O)c3ccco3)C=CC3C(=O)N(c4ccccc4)C(=O)C32)cc(OC)c1OC (stereo not given)",
    "composite z-score": 1.18
  },
  {
    "molecule": "NCCCCCCNC(=O)[C@@H]1C[C@@H]2C(=O)NCC(=O)N2[C@@H]1c1ccc(O)cc1",
    "composite z-score": 1.32
  },
  {
    "molecule": "CC(C)[Si]1(C(C)C)O[C@@H](c2ccccc2)c2cc(-c3ccc(-c4ccc(Cl)c(Cl)c4)o3)nc(-c3ccccc3)c21",
    "composite z-score": 0.398
  },
  {
    "molecule": "CC(=O)NCCCC[C@@H]1NC(=O)[C@@H]2C[C@H](C(=O)NCCCCCNC(=O)CS)[C@H](c3cccc(OCCO)c3)N2C1=O",
    "composite z-score": -0.122
  },
  {
    "molecule": "CC(C)NC(=O)[C@@H]1c2ccccc2C(=O)N(C2Cc3ccccc3C2)[C@H]1c1ccc(CO)cc1",
    "composite z-score": 0.634
  },
  {
    "molecule": "C=CCOC(=O)[C@H]1[C@@H]2C(=O)O[C@@H](c3ccccc3)[C@@H](c3ccccc3)N2[C@@H](c2ccc(OCCOC(=O)[C@@H]3C[C@@H]4C(=O)N[C@@H](CC(C)C)C(=O)N4[C@@H]3c3ccc(O)cc3)cc2)[C@]12C(=O)Nc1ccccc12",
    "composite z-score": 1.02
  },
  {
    "molecule": "O=C(NCCN1CCOCC1)C1N=C(c2ccc(OCCCO)cc2)N(c2ccccc2)O1 (stereo not given)",
    "composite z-score": 0.561
  },
  {
    "molecule": "C=CCC(OC(C)=O)[C@@H]1[C@@H](N(Cc2ccc(-c3ccccc3)cc2)C(=O)c2cccc3ccccc23)c2cc(OCCCO)ccc2N1C(=O)c1ccc(-c2ccccc2)cc1 (stereo not given in full)",
    "composite z-score": -0.0375
  },
  {
    "molecule": "O=C(c1ccccc1)N1C(=O)[C@@]2(Cc3ccccc31)N=C(c1ccc(OCCCO)cc1)O[C@H]2c1ccccc1",
    "composite z-score": 1.57
  },
  {
    "molecule": "COC(=O)[C@@]1(Cc2ccccc2)N=C(c2ccc(OCCCO)cc2)O[C@H]1c1ccccc1",
    "composite z-score": 1.5
  },
  {
    "molecule": "CCCCCN1CC=CC23O[C@@H]4/C=C\\CCC(C)OC(=O)C4[C@H]2C(=O)N(C(C)CO)[C@@H]3C1=O (stereo not given in full)",
    "composite z-score": 0.946
  },
  {
    "molecule": "CC(CO)N1C(=O)[C@@H]2C3C(=O)OCCC/C=C\\[C@H]3OC23C=CCN(C(C)(C)C)C(=O)[C@@H]13 (stereo not given in full)",
    "composite z-score": 0.182
  }
]

---

test: binders from COS7 lysate, DM2A8 probe, primary screen, torsin A project, cell lysate, small-molecule microarray, fluorescence 635/667 (AID 1065)
reported_conditions: higher = more signal, COS7 lysate expressing mutant human TOR1A
Label rule, in plain words: composite z-score of 0.2 and up is Y, under 0.2 is N.

[
  {
    "molecule": "COc1cc2c(cc1OC)CN(C(=O)[C@H]1[C@@H]3C(=O)O[C@@H](c4ccccc4)[C@@H](c4ccccc4)N3[C@@H](c3ccc(O)cc3)[C@]13C(=O)Nc1ccc(C#CCCO)cc13)CC2",
    "cat": "Y"
  },
  {
    "molecule": "CCCCCN1CC=CC23O[C@@H]4C=CCCOC(=O)C4[C@H]2C(=O)N(CCCCCO)[C@@H]3C1=O (stereo not given in full)",
    "cat": "Y"
  },
  {
    "molecule": "COc1cccc(-c2cccc(=O)o2)c1",
    "cat": "N"
  },
  {
    "molecule": "O=C1C2C=CC(C(O)c3cccc4ccccc34)N(Nc3ccccc3F)C2C(=O)N1c1ccccc1 (stereo not given)",
    "cat": "N"
  },
  {
    "molecule": "C=CCC(OC(C)=O)[C@@H]1[C@@H](N(Cc2ccc(-c3ccccc3)cc2)C(=O)c2cccc3ccccc23)c2cc(OCCCO)ccc2N1C(=O)c1ccc(-c2ccccc2)cc1 (stereo not given in full)",
    "cat": "N"
  },
  {
    "molecule": "NCCCCCCNC(=O)[C@@H]1C[C@@H]2C(=O)NCC(=O)N2[C@@H]1c1ccc(O)cc1",
    "cat": "Y"
  },
  {
    "molecule": "Cc1ccc(S[C@]2(C(=O)O)CC(=O)N(C(C)C)[C@@H]2c2ccc(CO)cc2I)cc1",
    "cat": "Y"
  },
  {
    "molecule": "CCCCC(CC)C(O)C1C=CC2C(=O)N(Cc3ccccc3)C(=O)C2N1n1cnnc1 (stereo not given)",
    "cat": "N"
  },
  {
    "molecule": "O=C(NC1CC1)[C@@H]1c2ccccc2C(=O)N(Cc2ccccc2Cl)[C@H]1c1ccc(CO)cc1",
    "cat": "Y"
  },
  {
    "molecule": "COCCOC(=O)N1C(=O)[C@@]2(c3cc(C#Cc4ccc(OC)cc4)ccc31)[C@H](c1ccc(OCCO)cc1)N1[C@H](c3ccccc3)[C@H](c3ccccc3)OC(=O)[C@H]1[C@@H]2C(=O)N1CCN(c2ncccn2)CC1",
    "cat": "Y"
  },
  {
    "molecule": "CC(C)OC(=O)C=C1C[C@@H](c2ccccn2)O[C@@H](c2ccccn2)O1",
    "cat": "N"
  },
  {
    "molecule": "COCCOC(=O)N1C(=O)[C@@]2(c3cc(C#CCCO)ccc31)[C@H](C(N)=O)[C@H]1C(=O)O[C@H](c3ccccc3)[C@H](c3ccccc3)N1[C@@H]2c1ccc(O)cc1",
    "cat": "N"
  },
  {
    "molecule": "CC(C)C[C@@H]1NC(=O)[C@H](C(C)C)NC(=O)[C@@]23C(=O)N[C@@H](Cc4ccccc4)C2[C@H](C)[C@@]2(C)O[C@H]2C3/C=C/CC/C=C/CNC1=O (stereo not given in full)",
    "cat": "N"
  },
  {
    "molecule": "C=CC[C@@]12N=C(c3ccc(OCCCO)cc3)O[C@@H]1c1ccccc1N(C)C2=O",
    "cat": "Y"
  },
  {
    "molecule": "C=C(COC)/C(=C/C[C@@H](OC(=O)c1ccncc1)c1ccc(CO)o1)c1cc(C(=O)OC)ccc1OC",
    "cat": "Y"
  }
]
